Tested on: KM12
Assay Comment: NCI tumour cell line growth inhibition, 48 h
The source made the active and inactive calls. Cut-off read from the data, not from the text of the source: active = GI50 up to about 1.1 µM and inactive = higher.
Measure: GI50

O=S(=O)(O)c1cc(S(=O)(=O)O)c2c(/N=N/c3ccc(S(=O)(=O)O)c4ccccc34)c(O)ccc2c1	> 100 µM (inactive)
COc1ccc(C(=O)N2CCN(c3ccc4[nH]c(=O)oc4c3)CC2)cc1	> 100 µM (inactive)
COc1ccc2c3c([nH]c2c1)CCN(Cc1ccccc1)C3	22 µM (inactive)
COC(=O)C1(C(=O)OC)CC2=C(S(=O)(=O)c3ccccc3)C[C@H](C#N)[C@H]2C1	> 100 µM (inactive)

Data request: May I ask what GI50 has been recorded for CC(C)N1CCOC(c2ccc(O)c(O)c2)C1 (stereo not given) ?
Data returned: > 100 µM (inactive)

----------
Tested on: MDA-MB-435
Assay Comment: NCI tumour cell line growth inhibition, 48 h
Active and inactive are the calls of the source. Rule as the data show it: active = GI50 up to about 1.1 µM and inactive = higher.
The following compounds are listed with their measured GI50 values.

COc1ccc(OC)c2nc3c(C(=O)NCCN(C)C)cccc3nc12	5.11 µM (inactive)
COC(=O)C1=C(O)C(C(=O)OC)[C@]2(O)[C@H](C(=O)OC)[C@H]1C[C@@H](c1cccc(OC)c1)[C@H]2C(=O)OC (stereo partly specified)	17.5 µM (inactive)
Cc1ccc(Nc2sc(C)cc2C#N)c([N+](=O)[O-])c1	> 100 µM (inactive)
CC1(C)CC2C(C1=O)C1(C)CCCC2(C)C1=O (stereo unspecified)	> 100 µM (inactive)

Data request: May I ask what GI50 has been recorded for COc1ccc(-n2cnc3c(NC(Cc4ccccc4)C(=O)O)ncnc32)cc1 (stereo unspecified) ?
Data returned: > 100 µM (inactive)

Data request: May I ask what GI50 has been recorded for NC(CSC(=O)c1ccccc1)C(=O)O (stereo unspecified) ?
Data returned: > 100 µM (inactive)

Data request: May I ask what GI50 has been recorded for Cc1ccc(S(=O)(=O)N2C3C=CC(C3)[C@@H]2C(Cl)(Cl)Cl)cc1 (stereo partly specified) ?
Data returned: 27 µM (inactive)

Data request: May I ask what GI50 has been recorded for COCN(CCC1=CCCCC1)C(=O)OC ?
Data returned: > 100 µM (inactive)

Data request: May I ask what GI50 has been recorded for COc1ccc(C(=O)N2CCN(c3ccc4[nH]c(=O)oc4c3)CC2)cc1 ?
Data returned: > 100 µM (inactive)

Data request: May I ask what GI50 has been recorded for NNS(=O)(=O)c1cc(C(=O)O)cc(C(=O)O)c1 ?
Data returned: > 100 µM (inactive)

Data request: May I ask what GI50 has been recorded for CCS(=O)(=O)c1c2cc(OC)ccc2nc2ccc(OC)cc12 ?
Data returned: > 100 µM (inactive)

----------
The following molecules are listed with their measured GI50 values.
System: XF498
Assay Comment: NCI tumour cell line growth inhibition, 48 h
Activity calls are given as the source filed them. No stated cut-off is given here; in the data, active = GI50 up to about 1.1 µM and inactive = higher.

These recorded examples may help you get a feel for the data.
CCCCCNC(=O)CCCCCCCCCCCNC(=O)CCCCCCCCCCN1C=CC(=CC=C2C=CC(=O)C=C2)C=C1	10.3 µM (inactive)
N#CC(C(=O)/C(=N/NC(=O)c1ccccc1O)C(C#N)c1ccccc1)c1ccccc1 (stereo not drawn)	> 100 µM (inactive)
O=S1(=O)CCC2=CC(C(F)(F)F)=CC(C(F)(F)F)=CN21	1.79 µM (inactive)

Let us move to another entry and its GI50.
Data request: May I ask what GI50 has been recorded for COc1cccc2nc3c(C(=O)NCCN(C)C)cccc3nc12 ?
Data returned: 0.986 µM (active)

----------
System: OVCAR-3
Assay Comment: NCI tumour cell line growth inhibition, 48 h
Active and inactive are the calls of the source. Rule as the data show it: active = GI50 up to about 1.1 µM and inactive = higher.
Output constraint: value belongs to true (1) for active, false (0) for inactive

Cc1oc2c(C)c3oc(=O)cc(C)c3cc2c1CN	false (0)
O=C(O)Cc1ccccc1CCc1ccccc1Cl	false (0)
C[C@]1(O)CC(=O)c2c(c(-c3ccc4cc5c(c(O)c4c3O)C(=O)C[C@@](C)(O)C5)c3cccc(O)c3c2O)C1	false (0)
O=S1(=O)CCC2=CC(C(F)(F)F)=CC(C(F)(F)F)=CN21	true (1)

Data request: Could you kindly confirm the outcome this assay logged for CC(=O)OCC1OC(n2c(C)c(C(C)=O)c(-c3ccco3)c(C#N)c2=S)C(OC(C)=O)C(OC(C)=O)C1OC(C)=O (stereo not given) ?
Data returned: false (0)

----------
System: DU-145
Assay Comment: NCI tumour cell line growth inhibition, 48 h
Active and inactive are the calls of the source. No stated cut-off is given here; in the data, active = GI50 up to about 1.1 µM and inactive = higher.
The following compounds are listed with their measured GI50 values.

O=C(Cc1ccc(Cl)c(Cl)c1)NCC1(N2CCCCC2)CCCCC1	61 µM (inactive)

Data request: May I ask what GI50 has been recorded for CCOC(=O)c1nnsc1NC(=O)Nc1ccc(Cc2ccc(NC(=O)Nc3snnc3C(=O)OCC)cc2)cc1 ?
Data returned: 32.8 µM (inactive)

Data request: May I ask what GI50 has been recorded for CCOC(=O)C(SCCO)C(C(=O)OCC)n1cnc2c(N)ncnc21 (stereo unspecified) ?
Data returned: > 67.3 µM (inactive)

Data request: May I ask what GI50 has been recorded for O=c1[nH]c(=O)n(C2CC(O)C(CO)O2)cc1I (stereo unspecified) ?
Data returned: > 100 µM (inactive)

----------
System: HT-29
Assay Comment: NCI tumour cell line growth inhibition, 48 h
The source made the active and inactive calls. Rule as the data show it: active = GI50 up to about 1.1 µM and inactive = higher.
Output constraint: value belongs to active, inactive

CN(C)CCNc1ccc(C(=O)NCCCN(C)CCCNC(=O)c2ccc(NCCN(C)C)c3c(=O)c4ccccc4[nH]c23)c2[nH]c3ccccc3c(=O)c12	active
CN(C)/C=C/C(=CC=[N+](C)C)/C=C/N(C)C.[O-][Cl+3]([O-])([O-])[O-]	inactive
CCN(CC)CC(=O)Nc1c(C(N)=O)nnn1Cc1cc(Cl)c(C(=O)c2ccc(Cl)cc2)c(Cl)c1	inactive

Data request: Could you kindly confirm the outcome this assay logged for Cc1nc(O)nc2nc3ccc(Cl)cc3c(N(CCO)CCO)c12 ?
Data returned: inactive

Data request: Could you kindly confirm the outcome this assay logged for O=Nc1c(-c2cccc([N+](=O)[O-])c2)nc2cnccn12 ?
Data returned: inactive

Data request: Could you kindly confirm the outcome this assay logged for [N-]=[N+]=NC1(Cc2ccccc2)C(=O)Nc2ccccc2C1=O (stereo unspecified) ?
Data returned: inactive

Data request: Could you kindly confirm the outcome this assay logged for Cc1ccc(SCC(OCn2cnc3c(N)ncnc32)[C@H](C)F)cc1 (stereo partly specified) ?
Data returned: inactive

Data request: Could you kindly confirm the outcome this assay logged for O=C1c2ccccc2C(=O)c2[nH]c(Cc3ccc(F)cc3)nc21 ?
Data returned: inactive

Data request: Could you kindly confirm the outcome this assay logged for NCCSS(=O)(=O)CCN ?
Data returned: inactive

Data request: Could you kindly confirm the outcome this assay logged for COc1ccc(NC(=O)CC/C(CC(=O)C(C)(C)C)=N\NC(=O)C(=O)NN)cc1 ?
Data returned: inactive

Data request: Could you kindly confirm the outcome this assay logged for Nc1ccc2c(c1)Cc1ccccc1-2 ?
Data returned: inactive

----------
System: NCI/ADR-RES
Assay Comment: NCI tumour cell line growth inhibition, 48 h
The source made the active and inactive calls. No stated cut-off is given here; in the data, active = GI50 up to about 1.1 µM and inactive = higher.
Output constraint: value belongs to active, inactive

Example entries and their recorded answers appear below.
CN(Cc1c[n+]([O-])c2nc(N)nc(N)c2n1)c1ccc(C(=O)NC23CC4CC(CC(C4)C2)C3)cc1	inactive
CC[C@@]1(O)C(=O)OCc2c1cc1n(c2=O)Cc2cc3cc(O)ccc3nc2-1 [HYDROXYCAMPTOTHECIN]	active
[N-]=[N+]=NC[C@H]1OCO[C@H](CN=[N+]=[N-])[C@@H](OCCOCCCl)[C@@H]1OCCOCCCl	inactive

Data request: Could you kindly confirm the outcome this assay logged for CC(=O)OCC1OC(n2c(C)c(C(C)=O)c(-c3ccco3)c(C#N)c2=S)C(OC(C)=O)C(OC(C)=O)C1OC(C)=O (centres undefined) ?
Data returned: inactive

----------
The following molecules are listed with their measured GI50 values.
Tested on: HT-29
Assay Comment: NCI tumour cell line growth inhibition, 48 h
Calls of active or inactive are those of the source. Rule as the data show it: active = GI50 up to about 1.1 µM and inactive = higher.

These recorded examples may help you get a feel for the data.
O=C(CC(=O)CC(O)(C(F)(F)F)C(F)(F)F)CC(O)(C(F)(F)F)C(F)(F)F	8.49 µM (inactive)
COC(=N)C(C)C	> 100 µM (inactive)
CCn1c(=O)ccc2ccc(N(CCO)CCO)nc21	> 100 µM (inactive)
CCOC(=O)c1nnsc1NC(=O)Nc1ccc(Cc2ccc(NC(=O)Nc3snnc3C(=O)OCC)cc2)cc1	61 µM (inactive)
COC(=O)c1c(O)ccc2c1c1cc3ccccc3c(O)c1n2Cc1ccccc1Cl	11.7 µM (inactive)

Let us move to another entry and its GI50.
Data request: May I ask what GI50 has been recorded for O=C(NCc1ccccc1)c1cnc(Cl)cn1 ?
Data returned: 33.2 µM (inactive)

----------
The following molecules are listed with their measured GI50 values.
System: 786-0
Assay Comment: NCI tumour cell line growth inhibition, 48 h
Activity calls are given as the source filed them. Rule as the data show it: active = GI50 up to about 1.1 µM and inactive = higher.

Cc1oc2c(C)c3oc(=O)cc(C)c3cc2c1CN	39.9 µM (inactive)
CC1=CC2CC(C)=C(CC[C@]3(C)CC[C@H]([C@@H](C)C(=O)O)OO3)C(C)(C)C2CC1 (stereo not given in full)	1.45 µM (inactive)
CCn1c(=O)ccc2ccc(N(CCO)CCO)nc21	> 100 µM (inactive)
[N-]=[N+]=NC1(Cc2ccccc2)C(=O)Nc2ccccc2C1=O (stereo not given)	> 100 µM (inactive)
C[N+](C)(C)CC(=O)N/N=C(\C(=O)Nc1ccc(Cl)cc1)C1C(=O)N(c2ccccc2)N=C1N (stereo not given)	> 100 µM (inactive)
CCOC(=N)CC(=O)NC(C)c1ccccc1 (stereo not given)	> 100 µM (inactive)
O=[N+]([O-])c1ccc2c3c1[C@@H]1O[C@@H]1c1cccc(c1-3)[C@@H]1O[C@H]21	2.47 µM (inactive)
CC1(C)CC2C(=O)c3ccccc3NC2c2ccccc21 (stereo not given)	3.94 µM (inactive)
O=C1NC(=O)C2C1c1[nH]c3ccccc3c1C1CCCC12 (stereo not given)	5.02 µM (inactive)

Let us move to another entry and its GI50.
Data request: May I ask what GI50 has been recorded for Cc1nc2sccn2c1C(=O)NC(=O)Nc1ccc(Cl)cc1 ?
Data returned: 48.2 µM (inactive)
